Biological target: human TLR8 (Homo sapiens, UniProt Q9NR97)
Sequence (Q9NR97 27-1041): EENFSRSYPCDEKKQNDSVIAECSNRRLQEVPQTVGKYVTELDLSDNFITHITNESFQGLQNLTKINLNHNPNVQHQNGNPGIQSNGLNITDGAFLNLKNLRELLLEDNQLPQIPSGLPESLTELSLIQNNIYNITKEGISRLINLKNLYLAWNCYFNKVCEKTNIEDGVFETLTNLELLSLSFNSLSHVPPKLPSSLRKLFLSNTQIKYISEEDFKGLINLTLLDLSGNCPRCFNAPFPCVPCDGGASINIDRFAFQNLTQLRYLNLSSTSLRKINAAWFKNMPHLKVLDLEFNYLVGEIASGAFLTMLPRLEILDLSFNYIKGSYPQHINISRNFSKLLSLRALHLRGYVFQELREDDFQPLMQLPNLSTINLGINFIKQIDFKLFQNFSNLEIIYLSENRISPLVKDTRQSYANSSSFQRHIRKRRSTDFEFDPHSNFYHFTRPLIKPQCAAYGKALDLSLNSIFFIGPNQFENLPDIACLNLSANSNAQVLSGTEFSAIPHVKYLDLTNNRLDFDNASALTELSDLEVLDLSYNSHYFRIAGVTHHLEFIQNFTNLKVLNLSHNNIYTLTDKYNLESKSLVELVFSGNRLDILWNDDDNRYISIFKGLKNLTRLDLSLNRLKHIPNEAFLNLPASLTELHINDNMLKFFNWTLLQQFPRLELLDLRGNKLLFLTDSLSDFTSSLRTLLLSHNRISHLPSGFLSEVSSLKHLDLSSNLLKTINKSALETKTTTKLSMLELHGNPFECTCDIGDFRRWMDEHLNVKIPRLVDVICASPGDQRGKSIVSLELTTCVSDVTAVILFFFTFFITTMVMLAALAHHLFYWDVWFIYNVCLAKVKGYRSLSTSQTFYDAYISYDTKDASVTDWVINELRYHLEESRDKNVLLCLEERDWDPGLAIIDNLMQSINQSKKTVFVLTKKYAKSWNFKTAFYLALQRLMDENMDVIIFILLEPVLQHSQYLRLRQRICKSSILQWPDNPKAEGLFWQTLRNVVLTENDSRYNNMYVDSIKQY
Test: TLR8 inhibition reporter assay (HEK-Blue cells, SEAP reporter)
Conditions: HEK-Blue cells overexpressing human TLR8; stimulated with R848 15.9 μM; SEAP read after 22 hour; dose range 0.05 nM-50 μM
pIC50: −log10 of the molar value.
measure: pIC50

mol_smiles=Cn1c(=O)c(-c2ccc(S(C)(=O)=O)cc2)cc2cc(-c3ccc(C4CCN(C5COC5)CC4)cc3)ccc21 measure=pIC50 qualifier_sign== measured_result=4.52
mol_smiles=CC(C)N1CCN(c2ccc(-c3ccc4[nH]c(=O)c(-c5ccncc5)cc4c3)cc2)CC1 measure=pIC50 qualifier_sign== measured_result=6.02
mol_smiles=CN1CCC(c2ccc(-c3ccc4c(c3)cc(-c3ccc(S(C)(=O)=O)cc3)c(=O)n4C)cc2)CC1 measure=pIC50 qualifier_sign== measured_result=5.65
mol_smiles=CC(C)N1CCC(c2ccc(Nc3ccc4c(c3)cc(-c3ccc(S(C)(=O)=O)cc3)c(=O)n4C)cc2)CC1 measure=pIC50 qualifier_sign=≤ measured_result=4.30
mol_smiles=CC(C)N1CCC(c2ccc(-c3ccc4c(c3)cc(-c3ccc(S(C)(=O)=O)cc3)c(=O)n4CCCO)cc2)CC1 measure=pIC50 qualifier_sign== measured_result=4.72
mol_smiles=CCC(=O)Nc1ccc(-c2cc3cc(-c4ccc(N5CCN(C(C)C)CC5)cc4)ccc3[nH]c2=O)cc1 measure=pIC50 qualifier_sign=≤ measured_result=4.30
mol_smiles=COc1ccc(-c2cc3cc(-c4ccc(N5CCN(C(C)C)CC5)cc4)ccc3[nH]c2=O)cc1OC measure=pIC50 qualifier_sign=≤ measured_result=4.30
